# Assay Notes: blockers of Ca2+-induced mitochondrial swelling – biochemical, isolated mouse mitochondria, absorbance, primary screen (AID 602449);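 note: 0% = DMSO wells given calcium and 100% = 1 mM EGTA wells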
# Test Settings: 30 min, at 10 µM, stronger effect = higher value
Hit rate of the full screen: of about 360,000 compounds, about 5,000 (1.4%) were called active. What follows is part of a selection rich in actives, with near analogues and random picks from the rest.
Measured Parameter: inhibition (%)
Provide only the numeric value, understood in %.

Past entries and their recorded results:
For record "c1csc(-c2nnc(COc3ncnc4sccc34)o2)c1" the listed inhibition is 1.9

For record "Fc1ccc2[nH]c3c(N4CCSCC4)ncnc3c2c1" the listed inhibition is 80.7

For record "CCc1cc2c(NC3CCCC3)ncnc2s1" the listed inhibition is 87.6

Continuing:
For record "Cc1nc(C)c2c(c1C(F)(F)F)-c1ccccc1C2(F)F" the listed inhibition is -0.4

For record "O=C(CN1CCN(C(=S)NC2CCCC2)CC1)Nc1ccc(Oc2ccccc2)cc1" the listed inhibition is 5.8

For record "O=S(=O)([N-]c1nc2ccccc2nc1-[n+]1ccc(Cc2ccccc2)cc1)c1ccc(Br)s1" the listed inhibition is 5
